Each entry below carries its reported MIC.
- Tested on: Enterococcus faecalis
- ASSAY_INFO: Antibacterial activity against vancomycin-resistant Enterococcus faecalis ATCC 29212 after 24 hrs
- Type: functional
- APPLIED_CONDITIONS: ATCC 29212, 24 h
Positions of bridges follow the written chain, without caps; N, C: chain ends. Non-standard residues stand in square brackets, D forms with d. Residues, ends and D or L forms follow the SMILES beside them. dNMeF = CN[C@H](Cc1ccccc1)C(=O)O

# MOLECULE, MIC, µg/mL
measured = [
    ("CC[C@@H](C)[C@@H](NC(=O)[C@@H](CCCNC(=N)N)NC(=O)[C@H](CCCNC(=N)N)NC(=O)[C@@H](NC(=O)[C@@H](Cc1ccccc1)NC)[C@@H](C)CC)C(=O)N[C@H](C(=O)N[C@@H](CO)C(=O)N[C@H]1C(=O)N[C@@H](C)C(=O)N[C@@H](CC(C)C)C(=O)N[C@@H]([C@@H](C)CC)C(=O)O[C@H]1C)[C@@H](C)CC (H-[dNMeF]IR[dR][dI]IS[dT]ALI; ester 8-C)", 1),
    ("CC[C@@H](C)[C@@H](NC(=O)[C@@H](CCC(N)=O)NC(=O)[C@H](CO)NC(=O)[C@@H](NC(=O)[C@@H](Cc1ccccc1)NC)[C@@H](C)CC)C(=O)N[C@H](C(=O)N[C@@H](CO)C(=O)N[C@H]1C(=O)N[C@@H](C)C(=O)N[C@@H](CC(C)C)C(=O)N[C@@H]([C@@H](C)CC)C(=O)O[C@H]1C)[C@@H](C)CC", 0.25),
]

====

- Test system: Staphylococcus aureus
- ASSAY_INFO: Antibacterial activity against methicillin-resistant Staphylococcus aureus ATCC 700699 after 24 hrs
- Type: functional
- APPLIED_CONDITIONS: ATCC 700699, 24 h
Positions of bridges follow the written chain, without caps; N, C: chain ends. Non-standard residues stand in square brackets, D forms with d. Residues, ends and D or L forms follow the SMILES beside them. dNMeF = CN[C@H](Cc1ccccc1)C(=O)O

# MOLECULE, MIC / µg/mL
records = [
    ("CC[C@@H](C)[C@@H](NC(=O)[C@@H](CCC(N)=O)NC(=O)[C@H](CCCNC(=N)N)NC(=O)[C@@H](NC(=O)[C@@H](Cc1ccccc1)NC)[C@@H](C)CC)C(=O)N[C@H](C(=O)N[C@@H](CO)C(=O)N[C@H]1C(=O)N[C@@H](C)C(=O)N[C@@H](CC(C)C)C(=O)N[C@@H]([C@@H](C)CC)C(=O)O[C@H]1C)[C@@H](C)CC (H-[dNMeF]IR[dQ][dI]IS[dT]ALI; ester 8-C)", 0.5),
    ("CC[C@@H](C)[C@@H](NC(=O)[C@@H](CCC(N)=O)NC(=O)[C@H](CO)NC(=O)[C@@H](NC(=O)[C@@H](Cc1ccccc1)NC)[C@@H](C)CC)C(=O)N[C@H](C(=O)N[C@@H](CO)C(=O)N[C@H]1C(=O)N[C@@H](CCCNC(=N)N)C(=O)N[C@@H](CC(C)C)C(=O)N[C@@H]([C@@H](C)CC)C(=O)O[C@H]1C)[C@@H](C)CC (H-[dNMeF]IS[dQ][dI]IS[dT]RLI; ester 8-C)", 0.5),
    ("CC[C@@H](C)[C@@H](NC(=O)[C@@H](CCCNC(=N)N)NC(=O)[C@H](CO)NC(=O)[C@@H](NC(=O)[C@@H](Cc1ccccc1)NC)[C@@H](C)CC)C(=O)N[C@H](C(=O)N[C@@H](CO)C(=O)N[C@H]1C(=O)N[C@@H](C)C(=O)N[C@@H](CC(C)C)C(=O)N[C@@H]([C@@H](C)CC)C(=O)O[C@H]1C)[C@@H](C)CC", 0.25),
    ("CC[C@@H](C)[C@@H](NC(=O)[C@@H](CCC(N)=O)NC(=O)[C@H](CCCNC(=N)N)NC(=O)[C@@H](NC(=O)[C@@H](Cc1ccccc1)NC)[C@@H](C)CC)C(=O)N[C@H](C(=O)N[C@@H](CO)C(=O)N[C@H]1C(=O)N[C@@H](C)C(=O)N[C@@H]([C@@H](C)CC)C(=O)N[C@@H]([C@@H](C)CC)C(=O)O[C@H]1C)[C@@H](C)CC", 1),
    ("CC[C@@H](C)[C@@H](NC(=O)[C@@H](CCCNC(=N)N)NC(=O)[C@H](CO)NC(=O)[C@@H](NC(=O)[C@@H](Cc1ccccc1)NC)[C@@H](C)CC)C(=O)N[C@H](C(=O)N[C@@H](CO)C(=O)N[C@H]1C(=O)N[C@@H](CCCNC(=N)N)C(=O)N[C@@H](CC(C)C)C(=O)N[C@@H]([C@@H](C)CC)C(=O)O[C@H]1C)[C@@H](C)CC (H-[dNMeF]IS[dR][dI]IS[dT]RLI; ester 8-C)", 1),
]

====

Each entry below carries its reported MIC.
- System: Staphylococcus saprophyticus
- ASSAY_INFO: Antibacterial activity against Staphylococcus saprophyticus ATCC 15305 after 24 hrs
- Format: functional
- APPLIED_CONDITIONS: ATCC 15305, 24 h
Positions of bridges follow the written chain, without caps; N, C: chain ends. Non-standard residues stand in square brackets, D forms with d. Residues, ends and D or L forms follow the SMILES beside them. dNMeF = CN[C@H](Cc1ccccc1)C(=O)O
OBSERVED_PROPERTY: MIC

# MOLECULE, OBSERVED_PROPERTY, MEASURED_VALUE
records = [
    ("CC[C@@H](C)[C@@H](NC(=O)[C@@H](CCC(N)=O)NC(=O)[C@H](CCCNC(=N)N)NC(=O)[C@@H](NC(=O)[C@@H](Cc1ccccc1)NC)[C@@H](C)CC)C(=O)N[C@H](C(=O)N[C@@H](CO)C(=O)N[C@H]1C(=O)N[C@@H](CCCNC(=N)N)C(=O)N[C@@H](CC(C)C)C(=O)N[C@@H]([C@@H](C)CC)C(=O)O[C@H]1C)[C@@H](C)CC (H-[dNMeF]IR[dQ][dI]IS[dT]RLI; ester 8-C)", "MIC", "< 0.0625 µg/mL"),
    ("CC[C@@H](C)[C@@H](NC(=O)[C@@H](CCCNC(=N)N)NC(=O)[C@H](CO)NC(=O)[C@@H](NC(=O)[C@@H](Cc1ccccc1)NC)[C@@H](C)CC)C(=O)N[C@H](C(=O)N[C@@H](CO)C(=O)N[C@H]1C(=O)N[C@@H](CCCNC(=N)N)C(=O)N[C@@H](CC(C)C)C(=O)N[C@@H]([C@@H](C)CC)C(=O)O[C@H]1C)[C@@H](C)CC (H-[dNMeF]IS[dR][dI]IS[dT]RLI; ester 8-C)", "MIC", "< 0.0625 µg/mL"),
    ("CC[C@@H](C)[C@@H](NC(=O)[C@@H](CCCNC(=N)N)NC(=O)[C@H](CO)NC(=O)[C@@H](NC(=O)[C@@H](Cc1ccccc1)NC)[C@@H](C)CC)C(=O)N[C@H](C(=O)N[C@@H](CO)C(=O)N[C@H]1C(=O)N[C@@H](C)C(=O)N[C@@H](CC(C)C)C(=O)N[C@@H]([C@@H](C)CC)C(=O)O[C@H]1C)[C@@H](C)CC", "MIC", "< 0.0625 µg/mL"),
]

====

- Test system: Staphylococcus aureus
- ASSAY_INFO: Antibacterial activity against methicillin-sensitive Staphylococcus aureus after 24 hrs
- Format: functional
Each entry below carries its reported MIC.

# COMPOUND, MIC / µg/mL
rows = [
    ("CC[C@@H](C)[C@@H](NC(=O)[C@@H](CCC(N)=O)NC(=O)[C@H](CO)NC(=O)[C@@H](NC(=O)[C@@H](Cc1ccccc1)NC)[C@@H](C)CC)C(=O)N[C@H](C(=O)N[C@@H](CO)C(=O)N[C@H]1C(=O)N[C@@H](C)C(=O)N[C@@H](C)C(=O)N[C@@H]([C@@H](C)CC)C(=O)O[C@H]1C)[C@@H](C)CC", 1),
    ("CC[C@@H](C)[C@@H](NC(=O)[C@@H](CCC(N)=O)NC(=O)[C@H](CO)NC(=O)[C@@H](NC(=O)[C@@H](Cc1ccccc1)NC)[C@@H](C)CC)C(=O)N[C@H](C(=O)N[C@@H](CO)C(=O)N[C@H]1C(=O)N[C@@H](C)C(=O)N[C@@H](CC(C)C)C(=O)N[C@@H]([C@@H](C)CC)C(=O)O[C@H]1C)[C@@H](C)CC", 0.063),
    ("CC[C@@H](C)[C@@H](NC(=O)[C@@H](CCC(N)=O)NC(=O)[C@H](CO)NC(=O)[C@@H](NC(=O)[C@@H](Cc1ccccc1)NC)[C@@H](C)CC)C(=O)N[C@H](C(=O)N[C@@H](CO)C(=O)N[C@H]1C(=O)N[C@@H](C)C(=O)N[C@@H](C(C)C)C(=O)N[C@@H]([C@@H](C)CC)C(=O)O[C@H]1C)[C@@H](C)CC", 0.25),
    ("CCC(C)[C@@H]1NC(=O)[C@H](C)NC(=O)[C@H](NC(=O)[C@H](CO)NC(=O)[C@@H](NC(=O)[C@H](NC(=O)[C@@H](CCC(N)=O)NC(=O)[C@H](CO)NC(=O)[C@@H](NC(=O)[C@@H](Cc2ccccc2)NC)[C@@H](C)CC)[C@H](C)CC)[C@@H](C)CC)[C@H](C)OC(=O)[C@H]([C@@H](C)CC)NC1=O (some centres undefined)", 0.063),
]
